B1: Hairpin Ribozyme (parent)
chain: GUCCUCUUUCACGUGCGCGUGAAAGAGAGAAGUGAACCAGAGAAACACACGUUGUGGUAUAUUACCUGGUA

Variants of: B1
Assay: self-cleavage, relative activity (ratio to wild type); higher = more cleavage; co-transcriptional
Binary call on self-cleavage: true from 0.2 upward, false beneath that.

Worked set:
INSERT INTO results (biopolymer_sequence, cat) VALUES
  ('GUCCUCUUUCACGUUCGCGUGAAAGAGAGAAGUGAACCAAAGAAACACACGUUGUGGUAUAUUACCUGGUA [G15U G40A]', 'true'),
  ('GUCCACUUUCACGUGCGCGUGAAAGAGAGAAGUGAACCAGAAAAACACACGUUGUGGUAUAUUACCUGGUA [U5A G42A]', 'true'),
  ('GUCCUCUUUCACGUGCGCGUGAAAGAGAGAAGUGAAACAGAGAAACACACGUAGUGGUAUAUUACCUGGUA [C37A U53A]', 'true');

Query block: // inclusive: self-cleavage at least 0.2? input: GUCCUCUUUCACGUGCGCGUGAAAGAGAGAAGUGAACCAGAGAAACACCCGUUGUGCUAUAUUACCUGGUA [A49C G57C]
Result block: false

Query block: Confirm if self-cleavage reported for the variant GUCCUCUUUCACGAGCGCGUGAAAGAGAGAAGUGAACCAGAGAAACACACGUUGUGGUAUAUUACCUUGUA [U14A G68U] is 0.2 or above.
Result block: true
